target: UniProtKB Q9UJM8; test: inhibitory activity against glucose oxidase (GOX), enzyme coupling method with glycolic acid substrate; assay type: biochemical; details: fitted by Graphpad Prism 5.0
Sequence (Q9UJM8 whole entry): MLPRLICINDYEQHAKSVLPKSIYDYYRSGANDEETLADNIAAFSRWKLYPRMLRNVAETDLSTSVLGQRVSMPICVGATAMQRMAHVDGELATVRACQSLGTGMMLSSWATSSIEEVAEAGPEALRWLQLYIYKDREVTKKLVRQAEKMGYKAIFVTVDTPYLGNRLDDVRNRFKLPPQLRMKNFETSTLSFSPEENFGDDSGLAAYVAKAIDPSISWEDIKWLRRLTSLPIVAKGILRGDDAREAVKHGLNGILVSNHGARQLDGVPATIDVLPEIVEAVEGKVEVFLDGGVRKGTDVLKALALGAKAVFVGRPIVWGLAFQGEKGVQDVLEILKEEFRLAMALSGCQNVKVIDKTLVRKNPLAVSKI

[
  {
    "compound": "O=c1c(O)c(-c2ccc(O)c(O)c2)oc2cc(O)cc(O)c12 [Quercetin, reference compound]",
    "value unit": "µM",
    "IC50": 21
  }
]

Values from patent US10966996B2
